Data provenance: patent US11006626B2

- Tested on: Human Embryo Kidney (HEK) 293 cells
- method-notes: Hypothermia/rewarming injury of HEK cells, trypan blue viability count
- Assay type: cell-based
- condition-summary: 10 nM; 24 h at 4° C., 24 h rewarming
Readings of % cells that survived for the listed molecules
A complete answer gives the number followed by the unit.

{"molecule": "Cc1c(C)c2c(c(C)c1O)CCC(C)(CN1CCC[C@H]1CO)O2 (stereo partly shown) [SUL - 134]", "% cells that survived": "87.43%"}
{"molecule": "Cc1c(C)c2c(c(C)c1O)CCC(C)(C(=O)N1CCC[C@H]1C(=O)O)O2 (single isomer, unassigned) [SUL - 144]", "% cells that survived": "4.08%"}
{"molecule": "Cc1c(C)c2c(c(C)c1O)CCC(C)(C(=O)N1CCN(CCO)CC1)O2 (stereo not shown) [SUL - 132]", "% cells that survived": "93.96%"}
{"molecule": "Cc1c(C)c2c(c(C)c1O)CCC(C)(CN1CCC[C@H]1CO)O2 (stereo partly shown) [SUL - 135]", "% cells that survived": "71.94%"}
{"molecule": "Cc1c(C)c2c(c(C)c1O)CCC(C)(CN1CCC[C@H]1CO)O2 (stereo partly shown) [SUL - 128]", "% cells that survived": "28.21%"}

Using known records, supply % cells that survived for Cc1c(C)c2c(c(C)c1O)CCC(C)(C(=O)N1CCC[C@H]1C(=O)O)O2 (single isomer, unassigned) [SUL - 145]
12.99%

Using known records, supply % cells that survived for Cc1c(C)c2c(c(C)c1O)CCC(C)(C(=O)N1CCN(CCO)CC1)O2 (stereo not shown) [SUL - 138]
92.84%

---

Readings of viability at 10 µM for the listed compounds
- Test system: Human Embryo Kidney (HEK) 293 cells
- method-notes: Hypothermia/rewarming injury of HEK cells, trypan blue viability count
- Type: cell-based
- condition-summary: Homo sapiens, HEK293, 24 h, 10 μM; 24 h at 4° C., 24 h rewarming; read-out: % cells that survived
Lab book: enter the figure in %, no units written.

See these solved cases before continuing.
{"compound": "CNCCNC(=O)C1(C)CCc2c(C)c(O)c(C)c(C)c2O1 (stereo not drawn) [SUL - 100]", "outcome-measure": "viability at 10 µM", "units-of-measure": "%", "value-measured": 68.8}
{"compound": "Cc1c(C)c2c(c(C)c1O)CCC(C)(C(=O)Nc1cccc([N+](=O)[O-])c1)O2 (stereo not drawn) [SUL - 104]", "outcome-measure": "viability at 10 µM", "units-of-measure": "%", "value-measured": 98.9}

Using known records, supply viability at 10 µM for CCCCNC(=O)C1(C)CCc2c(C)c(O)c(C)c(C)c2O1 (stereo not drawn) [SUL - 91]
89.5

---

- Tested on: Human Embryo Kidney (HEK) 293 cells
- method-notes: Hypothermia/rewarming injury of HEK cells, trypan blue viability count
- Format: cell-based
- condition-summary: mean over the tested concentrations
outcome-measure: % cells that survived, Mean (%)
Lab book: enter the figure in %, no units written.

See these solved cases before continuing.
{"compound": "Cc1c(C)c2c(c(C)c1O)CCC(C)(C(=O)N1CCN(CCO)CC1)O2 (centres unmarked) [SUL - 132]", "target-or-system": "Human Embryo Kidney (HEK) 293 cells", "outcome-measure": "% cells that survived, Mean", "value-measured": 89}
{"compound": "Cc1c(C)c2c(c(C)c1O)CCC(C)(CN1CCC[C@H]1CO)O2 (some centres unmarked) [SUL - 128]", "target-or-system": "Human Embryo Kidney (HEK) 293 cells", "outcome-measure": "% cells that survived, Mean", "value-measured": 71}
{"compound": "Cc1c(C)c2c(c(C)c1O)CCC(C)(CN1CCCCC1)O2 (centres unmarked) [SUL - 130]", "target-or-system": "Human Embryo Kidney (HEK) 293 cells", "outcome-measure": "% cells that survived, Mean", "value-measured": 46}

Using known records, supply % cells that survived, Mean for Cc1c(C)c2c(c(C)c1O)CCC(C)(C(=O)N[C@H](CO)c1ccccc1)O2 (some centres unmarked) [SUL - 98]
75

Using known records, supply % cells that survived, Mean for Cc1c(C)c2c(c(C)c1O)CC[C@@](C)(C(=O)NO)O2 [SUL - 126]
57
